Tested on: C. elegans L3 larvae
Test: C. elegans L3 larvae abnormal locomotory behaviour on solid agar
Conditions: 3.75 uM; 6 h exposure; solid agar MYOB + E. coli OP50; mean of 4 replicates
assay_readout: % C. elegans L3 larvae any phene 6 h (conc.)

Fill blank: measured % C. elegans L3 larvae any phene 6 h (conc.) of the molecule Cc1ccc(N2CCN(C3CCC(C)C3)CC2)cc1 (centres unmarked) [VI-a] is ____. 1.7%

Endpoint output: % C. elegans L3 larvae any phene 6 h (conc.) of Cc1cc([N+](=O)[O-])ccc1N1CCN(CC2CCCCC2)CC1 [V-a] . Value? 0.0%

If you can, please state the reported % C. elegans L3 larvae any phene 6 h (conc.) value of FC(F)(F)c1cccc(N2CCN(C3CCCCCCC3)CC2)c1 [VI-i] . 0.0%

Record request: % C. elegans L3 larvae any phene 6 h (conc.) value, item O[C@@H]1CCCC[C@H]1N1CCC(c2ccccc2)CC1 (racemic) [vesamicol, reference compound] 0.0%

I would be grateful if you could share the reported % C. elegans L3 larvae any phene 6 h (conc.) for O=[N+]([O-])c1cccc(CN2CCN(C3CCCCC3)CC2)c1 [II-a] . 0.0%

Fill in the blank: the reported % C. elegans L3 larvae any phene 6 h (conc.) of Cc1ccc(N2CCN(CC3CC=CCC3)CC2)cc1 (centres unmarked) [VI-e] is ____. 5.8%

Requested field: % C. elegans L3 larvae any phene 6 h (conc.). Item: c1cc(N2CCN(CC3CCC3)CC2)ccn1 [IV-b] 0.0%

Item O=C(c1ccc([N+](=O)[O-])cc1)N1CCN(C2CCCC2)CC1 [III-d] has what recorded % C. elegans L3 larvae any phene 6 h (conc.)? 0.0%

What value of % C. elegans L3 larvae any phene 6 h (conc.) has been recorded for this entry: FC(F)(F)c1cccc(N2CCN(CC3CC4C=CC3C4)CC2)c1 (centres unmarked) [VI-f] 0.0%

What does the record list as % C. elegans L3 larvae any phene 6 h (conc.) for Fc1ccccc1N1CCN(C2CCCCCC2)CC1 [VI-j] ? 0.8%

Reported % C. elegans L3 larvae any phene 6 h (conc.), molecule Cc1ccc(N2CCN(CC3CC4C=CC3C4)CC2)cc1 (centres unmarked) [VI-c] : ____ 7.5%

###

Tested on: C. elegans L3 larvae
Assay: C. elegans L3 larvae abnormal locomotory behaviour on solid agar
Settings: 60 uM; 6 h exposure; solid agar MYOB + E. coli OP50; mean of 4 replicates
Lab note: anything with % C. elegans L3 larvae any phene 6 h (conc.) at or over 60% counts as 1 (yes); the rest go in 0 (no).

Has O=C(C1CCC1)N1CCN(c2ccc(F)cc2)CC1 a recorded % C. elegans L3 larvae any phene 6 h (conc.) greater than or equal to 60%? 0 (no)

Entry FC(F)(F)c1cccc(N2CCN(CC3CCCCC3)CC2)c1 : is its % C. elegans L3 larvae any phene 6 h (conc.) no less than 60%? 0 (no)

% C. elegans L3 larvae any phene 6 h (conc.) >= 60% for O=C(C1CCCC1)N1CCN(c2ccc([N+](=O)[O-])cc2)CC1 ? 0 (no)

Would you say Fc1ccccc1N1CCN(C2CCCCCC2)CC1 shows % C. elegans L3 larvae any phene 6 h (conc.) at minimum 60%? 0 (no)

Could you please find out whether CCN1CCN(CC2CCCCC2)CC1 has % C. elegans L3 larvae any phene 6 h (conc.) that meets 60% or exceeds it? 0 (no)

I'd appreciate it if you could say whether O=[N+]([O-])c1ccc(CN2CCN(C3CCCC3)CC2)cc1 has % C. elegans L3 larvae any phene 6 h (conc.) at least equal to 60%. 0 (no)

% C. elegans L3 larvae any phene 6 h (conc.) >= 60% for FC(F)(F)c1cccc(N2CCN(CC3CCCC3)CC2)c1 ? 1 (yes)

Assess whether reported % C. elegans L3 larvae any phene 6 h (conc.) for c1cc(N2CCN(CC3CCC3)CC2)ccn1 sits at 60% or higher. 0 (no)

Determine whether measured % C. elegans L3 larvae any phene 6 h (conc.) meets or exceeds 60% for O=[N+]([O-])c1cccc(CN2CCN(C3CCCCC3)CC2)c1 0 (no)

Hi, just wondering whether Cc1ccc(N2CCN(CC3CC4C=CC3C4)CC2)cc1 (stereo not shown) shows % C. elegans L3 larvae any phene 6 h (conc.) of 60% or higher. 1 (yes)

Reported % C. elegans L3 larvae any phene 6 h (conc.) reaches at least 60% for Cc1ccc(N2CCN(CC3CC=CCC3)CC2)cc1 (stereo not shown) ? 1 (yes)

Could you please find out whether O=C(C1CCCCC1)N1CCN(c2ccc([N+](=O)[O-])cc2)CC1 has % C. elegans L3 larvae any phene 6 h (conc.) that meets 60% or exceeds it? 0 (no)

I'd appreciate it if you could say whether FC(F)(F)c1cccc(N2CCN(CC3CC4C=CC3C4)CC2)c1 (stereo not shown) has % C. elegans L3 larvae any phene 6 h (conc.) at least equal to 60%. 1 (yes)

Hello, I need to know if Cc1cc(N2CCN(CC3CCCCC3)CC2)ccc1[N+](=O)[O-] has measured % C. elegans L3 larvae any phene 6 h (conc.) not below 60%. Thanks! 0 (no)

Given Cc1ccc(N2CCN(C3CCC(C)C3)CC2)cc1 (stereo not shown) , state whether its % C. elegans L3 larvae any phene 6 h (conc.) is at least 60%. 1 (yes)

State whether the measured % C. elegans L3 larvae any phene 6 h (conc.) reaches 60%, counting equality as reaching it, for O=C(c1ccc([N+](=O)[O-])cc1)N1CCN(C2CCCC2)CC1 0 (no)

In plain terms: is recorded % C. elegans L3 larvae any phene 6 h (conc.) at least 60% for O[C@@H]1CCCC[C@H]1N1CCC(c2ccccc2)CC1 (racemic) [vesamicol, reference compound] ? 0 (no)

Is reported % C. elegans L3 larvae any phene 6 h (conc.) greater than or equal to 60% here: Cc1cc([N+](=O)[O-])ccc1N1CCN(CC2CCCCC2)CC1 0 (no)

Please indicate if the recorded % C. elegans L3 larvae any phene 6 h (conc.) for CC1CCC(N2CCN(c3cccc(Cl)c3)CC2)C1 (stereo not shown) meets or exceeds 60%. 1 (yes)

Is the recorded value of % C. elegans L3 larvae any phene 6 h (conc.) equal to or greater than 60% for this molecule? FC(F)(F)c1cccc(N2CCN(C3CCCCCC3)CC2)c1 1 (yes)

Given the entry c1cc(N2CCN(CC3CCCCC3)CC2)ccn1 , answer whether its % C. elegans L3 larvae any phene 6 h (conc.) meets or surpasses 60%. 0 (no)

###

Target: UniProt Q62666
Sequence (Q62666 whole entry): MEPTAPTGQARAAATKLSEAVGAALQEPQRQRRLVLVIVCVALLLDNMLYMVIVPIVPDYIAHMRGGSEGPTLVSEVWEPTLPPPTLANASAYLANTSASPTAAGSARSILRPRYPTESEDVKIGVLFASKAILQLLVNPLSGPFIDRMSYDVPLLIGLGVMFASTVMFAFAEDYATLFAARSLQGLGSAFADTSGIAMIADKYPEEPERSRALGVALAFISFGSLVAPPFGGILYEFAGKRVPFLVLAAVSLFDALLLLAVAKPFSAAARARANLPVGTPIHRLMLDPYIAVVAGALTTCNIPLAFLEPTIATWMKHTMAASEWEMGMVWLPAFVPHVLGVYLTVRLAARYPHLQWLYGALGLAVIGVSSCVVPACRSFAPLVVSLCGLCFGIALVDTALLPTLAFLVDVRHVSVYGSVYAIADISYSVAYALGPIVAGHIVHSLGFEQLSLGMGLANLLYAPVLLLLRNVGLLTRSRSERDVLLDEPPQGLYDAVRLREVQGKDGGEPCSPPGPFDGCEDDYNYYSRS
Test: Competition binding, displacement of [3H]vesamicol from rat VAChT
assay_readout: Ki (nM)
The response must be a number in nM with no trailing unit.

What value of Ki has been recorded for this entry: O[C@@H]1CCCC[C@H]1N1CCC(c2ccccc2)CC1 (racemic) [vesamicol, reference compound] 30.3

###

Tested on: C. elegans L3 larvae
Assay: C. elegans L3 larvae abnormal locomotory behaviour on solid agar
Settings: 60 uM; 1 h exposure; solid agar MYOB + E. coli OP50; mean of 4 replicates
Provide the recorded % C. elegans L3 larvae any phene 1 h (conc.) for the entries that follow.
Lab book: enter the figure in %, no units written.

Recall the recorded % C. elegans L3 larvae any phene 1 h (conc.) for Fc1ccccc1N1CCN(C2CCCCCC2)CC1 [VI-j] with C. elegans L3 larvae and state it. 100.0

Under C. elegans L3 larvae: % C. elegans L3 larvae any phene 1 h (conc.) value of O=C(c1ccc([N+](=O)[O-])cc1)N1CCN(C2CCCC2)CC1 [III-d] ? 30.8

Request: % C. elegans L3 larvae any phene 1 h (conc.), test system C. elegans L3 larvae, entry Cc1ccc(N2CCN(CC3CC=CCC3)CC2)cc1 (stereo not shown) [VI-e] 100.0

Find the measured % C. elegans L3 larvae any phene 1 h (conc.): item CC1CCC(N2CCN(c3cccc(Cl)c3)CC2)C1 (stereo not shown) [VI-d] , target or system C. elegans L3 larvae. 100.0

Short answer please: % C. elegans L3 larvae any phene 1 h (conc.), C. elegans L3 larvae, entry O=C(C1CCC1)N1CCN(c2ccc(F)cc2)CC1 [III-c] 27.5

API: value(readout=% C. elegans L3 larvae any phene 1 h (conc.), system=C. elegans L3 larvae) for record FC(F)(F)c1cccc(N2CCN(CC3CC4C=CC3C4)CC2)c1 (stereo not shown) [VI-f] 100.0

Lab request: please report % C. elegans L3 larvae any phene 1 h (conc.) under test system C. elegans L3 larvae for FC(F)(F)c1cccc(N2CCN(CC3CCCCC3)CC2)c1 [VI-g] 94.2

Query the reported % C. elegans L3 larvae any phene 1 h (conc.) for C. elegans L3 larvae; item: c1cc(N2CCN(CC3CCCCC3)CC2)ccn1 [IV-a] 24.2

So what % C. elegans L3 larvae any phene 1 h (conc.) did Cc1ccc(N2CCN(C3CCC(C)C3)CC2)cc1 (stereo not shown) [VI-a] get with C. elegans L3 larvae? 100.0

Form field - read-out: % C. elegans L3 larvae any phene 1 h (conc.); system: C. elegans L3 larvae; submitted item: CCN1CCN(CC2CCCCC2)CC1 [I-a] 19.2

Give % C. elegans L3 larvae any phene 1 h (conc.) (C. elegans L3 larvae) of the following compound: FC(F)(F)c1cccc(N2CCN(CC3CCCC3)CC2)c1 [VI-k] 95.0

# query: % C. elegans L3 larvae any phene 1 h (conc.) | item Cc1cc([N+](=O)[O-])ccc1N1CCN(CC2CCCCC2)CC1 [V-a] | system: C. elegans L3 larvae 63.3

Could you share what % C. elegans L3 larvae any phene 1 h (conc.) was measured for FC(F)(F)c1cccc(N2CCN(C3CCCCCC3)CC2)c1 [VI-h] , tested on C. elegans L3 larvae? 100.0

# get_value(readout= % C. elegans L3 larvae any phene 1 h (conc.), system= C. elegans L3 larvae) for O=C(C1CCCCC1)N1CCN(c2ccc([N+](=O)[O-])cc2)CC1 [III-a] 4.2

Short answer please: % C. elegans L3 larvae any phene 1 h (conc.), C. elegans L3 larvae, entry O=[N+]([O-])c1ccc(CN2CCN(C3CCCC3)CC2)cc1 [II-b] 23.3

Lab note: need % C. elegans L3 larvae any phene 1 h (conc.) with C. elegans L3 larvae for entry Cc1cc(N2CCN(CC3CCCCC3)CC2)ccc1[N+](=O)[O-] [V-b] , please look it up. 62.5

% C. elegans L3 larvae any phene 1 h (conc.) of Cc1ccc(N2CCN(CC3CC4C=CC3C4)CC2)cc1 (stereo not shown) [VI-c] on C. elegans L3 larvae? 100.0

Identify the measured % C. elegans L3 larvae any phene 1 h (conc.) of O=[N+]([O-])c1cccc(CN2CCN(C3CCCCC3)CC2)c1 [II-a] for C. elegans L3 larvae. 6.7

Can you look up % C. elegans L3 larvae any phene 1 h (conc.) on C. elegans L3 larvae for O[C@@H]1CCCC[C@H]1N1CCC(c2ccccc2)CC1 (racemic) [vesamicol, reference compound] ? 11.7

Recall the recorded % C. elegans L3 larvae any phene 1 h (conc.) for FC(F)(F)c1cccc(N2CCN(C3CCCCCCC3)CC2)c1 [VI-i] with C. elegans L3 larvae and state it. 96.7

Recorded % C. elegans L3 larvae any phene 1 h (conc.) for O=C(C1CCCC1)N1CCN(c2ccc([N+](=O)[O-])cc2)CC1 [III-b] with C. elegans L3 larvae, please? 9.2

Request - read-out % C. elegans L3 larvae any phene 1 h (conc.) | tested on C. elegans L3 larvae | compound c1cc(N2CCN(CC3CCC3)CC2)ccn1 [IV-b] 30.0
